# EC50 per entry for 5-hydroxytryptamine receptor 1A (Homo sapiens, UniProt P08908)
The answer is to be given in µM; state only the numeric part.

Tested on 5-hydroxytryptamine receptor 1A (Homo sapiens, UniProt P08908), the item "N#Cc1ccc2[nH]cc(CCCCN3CCN(c4ccc(C(=O)CCC5CCN(Cc6cccc(Cl)c6)CC5)cc4)CC3)c2c1" showed EC50 equal to 0.203

Let me check: "N#Cc1ccc2[nH]cc(CCCCN3CCN(c4ccc(C(=O)CCC5CCN(Cc6ccccc6)CC5)cc4)CC3)c2c1" , system 5-hydroxytryptamine receptor 1A (Homo sapiens, UniProt P08908), measured EC50 is 0.0586

Next up:
# EC50 measured on 5-hydroxytryptamine receptor 1A (Homo sapiens, UniProt P08908) for item "CCN1CCC(CCC(=O)c2ccc(N3CCN(CCCCc4c[nH]c5ccc(C#N)cc45)CC3)cc2)CC1" = 0.009

----------
The compounds listed here are annotated with their Papp.
# protocol.text: in vitro
# condition.context: PAMPA
# Description: Permeability of compound by PAMPA-BBB assay
Give just the number in ×10⁻⁶ cm/s; leave the unit off.

Form: compound = "N#Cc1ccc2[nH]cc(CCCN3CCN(c4ccc(C(=O)CCC5CCN(Cc6ccccc6)CC5)cc4)CC3)c2c1" ; Papp = 4.38

Per the records, this compound ( "N#Cc1ccc2[nH]cc(CN3CCN(c4ccc(C(=O)CCC5CCN(Cc6cccnc6)CC5)cc4)CC3)c2c1" ) has Papp equal to 2.86

Next:
// field: Papp; key: "N#Cc1ccc2[nH]cc(CN3CCN(c4ccc(C(=O)CCC5CCN(Cc6ccoc6)CC5)cc4)CC3)c2c1" ; value = 5.56

----------
# tested.target: UniProt:P21836
# Sequence (P21836 whole entry): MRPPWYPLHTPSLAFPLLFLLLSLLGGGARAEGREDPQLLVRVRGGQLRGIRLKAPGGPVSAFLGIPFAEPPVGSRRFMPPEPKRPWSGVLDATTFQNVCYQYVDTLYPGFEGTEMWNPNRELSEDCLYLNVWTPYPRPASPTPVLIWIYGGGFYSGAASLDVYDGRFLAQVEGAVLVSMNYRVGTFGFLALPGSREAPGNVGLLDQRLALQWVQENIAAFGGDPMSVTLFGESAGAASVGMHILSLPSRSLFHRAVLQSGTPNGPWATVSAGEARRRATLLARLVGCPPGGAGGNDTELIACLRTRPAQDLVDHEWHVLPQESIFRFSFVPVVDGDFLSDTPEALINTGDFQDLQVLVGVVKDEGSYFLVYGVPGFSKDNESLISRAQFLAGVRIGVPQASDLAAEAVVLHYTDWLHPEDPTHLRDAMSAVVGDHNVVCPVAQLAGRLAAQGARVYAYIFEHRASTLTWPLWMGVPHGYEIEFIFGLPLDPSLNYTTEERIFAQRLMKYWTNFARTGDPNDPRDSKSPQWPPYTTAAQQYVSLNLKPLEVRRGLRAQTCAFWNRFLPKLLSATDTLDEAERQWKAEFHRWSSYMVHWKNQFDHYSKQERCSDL
# IC50 listing for each entry below

Use these answered entries as a reference point.
The molecule listed as "N#Cc1ccc2[nH]cc(CCCCN3CCN(c4ccc(C(=O)CCC5CCN(Cc6cc[nH]c6)CC5)cc4)CC3)c2c1" shows IC50 equal to 3.94 nM

For this molecule ( "N#Cc1ccc2c(CCCCN3CCN(c4ccc(C(=O)CCC5CCN(Cc6ccccc6)CC5)cc4)CC3)c[nH]c2c1" ), measured IC50 is 3.71 nM

For this molecule ( "N#Cc1ccc2[nH]cc(CCN3CCN(c4ccc(C(=O)CCC5CCN(Cc6ccsc6)CC5)cc4)CC3)c2c1" ), measured IC50 is 2.56 nM

The reported value for "Cc1ccc2[nH]cc(CCCCN3CCN(c4ccc(C(=O)CCC5CCN(Cc6ccccc6)CC5)cc4)CC3)c2c1" in terms of IC50 is 2.28 nM

Reported IC50 for "N#Cc1ccc2[nH]cc(CCCCN3CCN(c4ccc(C(=O)CCC5CCN(CC6CCC6)CC5)cc4)CC3)c2c1" was 249 nM

Next:
The value of IC50 measured for the molecule "N#Cc1ccc2[nH]cc(CCCCN3CCN(c4ccc(C(=O)CCC5CCN(CC6CC6)CC5)cc4)CC3)c2c1" turned out to be 366 nM

The molecule listed as "N#Cc1ccc2[nH]cc(CCCN3CCN(c4ccc(C(=O)CCC5CCN(Cc6cccnc6)CC5)cc4)CC3)c2c1" shows IC50 equal to 6.41 nM

----------
# tested.target: Acetylcholinesterase (Homo sapiens)
# Sequence (P22303 whole entry): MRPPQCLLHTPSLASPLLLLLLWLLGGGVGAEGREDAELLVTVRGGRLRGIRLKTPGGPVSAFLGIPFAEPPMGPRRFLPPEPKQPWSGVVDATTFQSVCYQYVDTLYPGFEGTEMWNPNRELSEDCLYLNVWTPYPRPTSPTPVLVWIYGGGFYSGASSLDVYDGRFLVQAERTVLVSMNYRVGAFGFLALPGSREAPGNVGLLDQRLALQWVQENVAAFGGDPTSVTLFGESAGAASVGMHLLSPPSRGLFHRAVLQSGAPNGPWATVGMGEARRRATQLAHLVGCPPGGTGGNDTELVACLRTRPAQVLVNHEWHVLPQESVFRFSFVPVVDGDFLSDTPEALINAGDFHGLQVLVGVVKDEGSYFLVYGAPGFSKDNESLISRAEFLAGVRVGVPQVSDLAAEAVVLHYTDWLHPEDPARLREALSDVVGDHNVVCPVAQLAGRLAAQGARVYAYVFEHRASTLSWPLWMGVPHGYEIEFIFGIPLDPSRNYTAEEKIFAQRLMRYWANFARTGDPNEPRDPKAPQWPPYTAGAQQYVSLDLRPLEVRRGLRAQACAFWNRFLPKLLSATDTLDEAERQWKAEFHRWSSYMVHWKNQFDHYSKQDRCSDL
# protocol.text: Inhibition of […] using acetylthiocholine iodide as substrate incubated for 20 mins by Ellman's method
measured.metric: pIC50
Scale explanation: pIC50 corresponds to minus log10 of a concentration expressed in moles per litre.

Lab book: pIC50 of "N#Cc1ccc2[nH]cc(CCCCN3CCN(c4ccc(C(=O)CCC5CCN(Cc6ccccc6)CC5)cc4)CC3)c2c1" noted as 9.24

----------
# tested.target: Voltage-gated inwardly rectifying potassium channel KCNH2 (Homo sapiens, UniProt Q12809)
# Sequence (Q12809 whole entry): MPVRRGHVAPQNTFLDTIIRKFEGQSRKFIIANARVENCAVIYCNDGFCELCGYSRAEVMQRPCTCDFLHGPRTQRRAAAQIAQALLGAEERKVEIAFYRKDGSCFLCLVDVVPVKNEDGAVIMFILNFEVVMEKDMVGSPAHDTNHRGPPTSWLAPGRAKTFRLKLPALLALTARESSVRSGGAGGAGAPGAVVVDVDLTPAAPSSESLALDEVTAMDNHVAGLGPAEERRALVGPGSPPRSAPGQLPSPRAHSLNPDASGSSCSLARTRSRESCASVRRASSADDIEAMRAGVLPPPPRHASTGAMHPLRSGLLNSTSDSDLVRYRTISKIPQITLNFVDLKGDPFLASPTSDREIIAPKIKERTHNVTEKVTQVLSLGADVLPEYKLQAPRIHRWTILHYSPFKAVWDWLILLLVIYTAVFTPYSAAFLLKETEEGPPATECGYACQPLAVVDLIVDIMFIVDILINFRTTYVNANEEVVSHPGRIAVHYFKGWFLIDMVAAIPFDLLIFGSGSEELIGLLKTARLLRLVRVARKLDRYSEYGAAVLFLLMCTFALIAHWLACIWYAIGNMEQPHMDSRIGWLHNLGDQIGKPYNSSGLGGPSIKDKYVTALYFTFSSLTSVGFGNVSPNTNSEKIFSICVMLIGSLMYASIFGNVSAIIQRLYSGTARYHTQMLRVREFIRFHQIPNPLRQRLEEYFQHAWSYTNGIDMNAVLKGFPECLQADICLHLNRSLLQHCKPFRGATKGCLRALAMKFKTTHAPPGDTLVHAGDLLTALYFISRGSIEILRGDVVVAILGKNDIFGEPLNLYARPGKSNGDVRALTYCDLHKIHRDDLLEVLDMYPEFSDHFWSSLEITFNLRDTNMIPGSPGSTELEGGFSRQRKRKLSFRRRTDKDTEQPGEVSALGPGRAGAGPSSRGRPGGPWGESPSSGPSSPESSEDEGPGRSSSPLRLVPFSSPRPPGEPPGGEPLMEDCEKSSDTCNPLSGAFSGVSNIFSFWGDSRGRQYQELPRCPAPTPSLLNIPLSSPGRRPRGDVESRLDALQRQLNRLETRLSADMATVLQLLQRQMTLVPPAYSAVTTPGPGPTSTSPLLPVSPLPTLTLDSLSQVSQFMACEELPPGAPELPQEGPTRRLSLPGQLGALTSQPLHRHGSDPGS
measured.metric: pIC50
Recall that pIC50 is obtained by taking minus log10 of the concentration measured in molar.

// sample "N#Cc1ccc2[nH]cc(CCCCN3CCN(c4ccc5oc(C(N)=O)cc5c4)CC3)c2c1" , its pIC50 was 5.26

----------
# protocol.text: in vitro
# condition.context: Sprague-Dawley, rat, microsomes
measured.metric: half-life at […] (min)
Write the value in min as a bare number.

For this molecule ( "N#Cc1ccc2[nH]cc(CCCCN3CCN(c4ccc5oc(C(N)=O)cc5c4)CC3)c2c1" ), measured half-life at […] is 43.8

----------
# protocol.text: in vitro
# condition.context: CD-1, mouse, microsomes
List of microsomal CLint at […] values.
Numeric only. Scale: µL/min/mg

response.value for "N#Cc1ccc2[nH]cc(CCCCN3CCN(c4ccc5oc(C(N)=O)cc5c4)CC3)c2c1" (field: microsomal CLint at […]) = 30.1

"C[C@]12CC[C@H]3[C@@H](CCC4=CC(=O)CC[C@@]43C)[C@@H]1CC[C@@H]2O" has a reported microsomal CLint at […] of 189

Continuing:
For record COc1cc2c(cc1OC)C(=O)C(CC1CCN(Cc3ccccc3)CC1)C2 (stereo not drawn) the listed microsomal CLint at […] is 34.8

----------
# tested.target: Acetylcholinesterase (Mus musculus, UniProt P21836)
# Sequence (P21836 whole entry): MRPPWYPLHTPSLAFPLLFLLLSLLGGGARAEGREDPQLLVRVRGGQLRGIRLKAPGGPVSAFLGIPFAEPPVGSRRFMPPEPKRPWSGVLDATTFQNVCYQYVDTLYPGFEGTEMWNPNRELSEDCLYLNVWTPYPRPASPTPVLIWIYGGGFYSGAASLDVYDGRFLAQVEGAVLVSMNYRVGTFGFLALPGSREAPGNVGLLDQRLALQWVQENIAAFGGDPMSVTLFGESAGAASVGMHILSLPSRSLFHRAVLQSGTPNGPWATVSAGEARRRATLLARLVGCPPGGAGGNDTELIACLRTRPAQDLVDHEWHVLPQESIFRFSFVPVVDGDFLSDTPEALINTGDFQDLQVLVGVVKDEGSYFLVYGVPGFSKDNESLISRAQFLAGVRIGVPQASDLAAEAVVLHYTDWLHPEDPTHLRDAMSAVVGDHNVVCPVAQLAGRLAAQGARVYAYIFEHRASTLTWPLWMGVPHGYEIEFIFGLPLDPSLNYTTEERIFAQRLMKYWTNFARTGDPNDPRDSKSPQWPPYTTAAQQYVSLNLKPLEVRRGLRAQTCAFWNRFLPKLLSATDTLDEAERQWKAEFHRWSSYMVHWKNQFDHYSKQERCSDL
List of pIC50 values.
Please express pIC50 as -log10 of the molar concentration.

In the examples that follow, each entry is paired with its recorded pIC50.
pIC50 recorded for this compound, "CCN1CCC(CCC(=O)c2ccc(N3CCN(CCCCc4c[nH]c5ccc(C#N)cc45)CC3)cc2)CC1" , is 6.41

Consider "N#Cc1ccc2[nH]cc(CCCN3CCN(c4ccc(C(=O)CCC5CCN(Cc6ccoc6)CC5)cc4)CC3)c2c1" . Its measured pIC50 is 8.02

So, "O=C(CCC1CCN(Cc2ccccc2)CC1)c1ccc(N2CCN(CCCCc3c[nH]c4ccc(Br)cc34)CC2)cc1" ? Its pIC50 was 8.11

Note: attention shifts to another entry.
Input "N#Cc1ccc2[nH]cc(CN3CCN(c4ccc(C(=O)CCC5CCN(Cc6ccsc6)CC5)cc4)CC3)c2c1" . Output pIC50: 8.63

----------
pEC50: −log10 of the molar value.
What follows is a collection of pEC50 values obtained with 5-hydroxytryptamine receptor 1B (Homo sapiens).
Sequence (P28222 whole entry): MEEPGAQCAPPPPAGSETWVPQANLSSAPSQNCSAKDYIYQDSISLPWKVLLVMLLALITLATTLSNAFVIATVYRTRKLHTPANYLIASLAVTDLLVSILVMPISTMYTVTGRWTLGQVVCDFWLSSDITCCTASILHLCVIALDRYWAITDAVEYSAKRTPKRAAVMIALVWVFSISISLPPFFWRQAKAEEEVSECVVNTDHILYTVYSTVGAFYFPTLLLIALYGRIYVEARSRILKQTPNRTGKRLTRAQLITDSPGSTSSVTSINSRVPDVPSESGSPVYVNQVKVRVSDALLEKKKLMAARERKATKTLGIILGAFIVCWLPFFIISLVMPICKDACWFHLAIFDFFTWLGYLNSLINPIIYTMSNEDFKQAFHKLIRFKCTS

Record for "N#Cc1ccc2[nH]cc(CCCCN3CCN(c4ccc5oc(C(N)=O)cc5c4)CC3)c2c1" under target or system 5-hydroxytryptamine receptor 1B (Homo sapiens): pEC50 reported as < 4.52

Others:
I looked up "CN1CCC[C@@H]1Cc1c[nH]c2ccc(CCS(=O)(=O)c3ccccc3)cc12" and its pEC50 for 5-hydroxytryptamine receptor 1B (Homo sapiens) was 7.93

The compound "N#Cc1ccc2[nH]cc(CCCCN3CCN(c4ccc(C(=O)CCC5CCN(Cc6ccccc6)CC5)cc4)CC3)c2c1" on 5-hydroxytryptamine receptor 1B (Homo sapiens): pEC50 was < 4.52
